assay: Maximum concentration in CSF at 30 min following 24 mg/kg subcutaneous dose in rats; type: ADME, organism-based, Cerebrospinal fluid; set-up: dose 24 mg/kg, route subcutaneous; details: rat, sc
MEASURED PARAMETER: Cmax (µg/mL)
Numbers only, in µg/mL.

*Q* Field request: Cmax | item: Nc1cccc(-c2ccc(CCN3CCN(CC(=O)c4ccccc4)CC3)cc2)n1
*A* 0.45

###

Values of pIC50 reported for UniProt:P29476 appear below.
Sequence (P29476 whole entry): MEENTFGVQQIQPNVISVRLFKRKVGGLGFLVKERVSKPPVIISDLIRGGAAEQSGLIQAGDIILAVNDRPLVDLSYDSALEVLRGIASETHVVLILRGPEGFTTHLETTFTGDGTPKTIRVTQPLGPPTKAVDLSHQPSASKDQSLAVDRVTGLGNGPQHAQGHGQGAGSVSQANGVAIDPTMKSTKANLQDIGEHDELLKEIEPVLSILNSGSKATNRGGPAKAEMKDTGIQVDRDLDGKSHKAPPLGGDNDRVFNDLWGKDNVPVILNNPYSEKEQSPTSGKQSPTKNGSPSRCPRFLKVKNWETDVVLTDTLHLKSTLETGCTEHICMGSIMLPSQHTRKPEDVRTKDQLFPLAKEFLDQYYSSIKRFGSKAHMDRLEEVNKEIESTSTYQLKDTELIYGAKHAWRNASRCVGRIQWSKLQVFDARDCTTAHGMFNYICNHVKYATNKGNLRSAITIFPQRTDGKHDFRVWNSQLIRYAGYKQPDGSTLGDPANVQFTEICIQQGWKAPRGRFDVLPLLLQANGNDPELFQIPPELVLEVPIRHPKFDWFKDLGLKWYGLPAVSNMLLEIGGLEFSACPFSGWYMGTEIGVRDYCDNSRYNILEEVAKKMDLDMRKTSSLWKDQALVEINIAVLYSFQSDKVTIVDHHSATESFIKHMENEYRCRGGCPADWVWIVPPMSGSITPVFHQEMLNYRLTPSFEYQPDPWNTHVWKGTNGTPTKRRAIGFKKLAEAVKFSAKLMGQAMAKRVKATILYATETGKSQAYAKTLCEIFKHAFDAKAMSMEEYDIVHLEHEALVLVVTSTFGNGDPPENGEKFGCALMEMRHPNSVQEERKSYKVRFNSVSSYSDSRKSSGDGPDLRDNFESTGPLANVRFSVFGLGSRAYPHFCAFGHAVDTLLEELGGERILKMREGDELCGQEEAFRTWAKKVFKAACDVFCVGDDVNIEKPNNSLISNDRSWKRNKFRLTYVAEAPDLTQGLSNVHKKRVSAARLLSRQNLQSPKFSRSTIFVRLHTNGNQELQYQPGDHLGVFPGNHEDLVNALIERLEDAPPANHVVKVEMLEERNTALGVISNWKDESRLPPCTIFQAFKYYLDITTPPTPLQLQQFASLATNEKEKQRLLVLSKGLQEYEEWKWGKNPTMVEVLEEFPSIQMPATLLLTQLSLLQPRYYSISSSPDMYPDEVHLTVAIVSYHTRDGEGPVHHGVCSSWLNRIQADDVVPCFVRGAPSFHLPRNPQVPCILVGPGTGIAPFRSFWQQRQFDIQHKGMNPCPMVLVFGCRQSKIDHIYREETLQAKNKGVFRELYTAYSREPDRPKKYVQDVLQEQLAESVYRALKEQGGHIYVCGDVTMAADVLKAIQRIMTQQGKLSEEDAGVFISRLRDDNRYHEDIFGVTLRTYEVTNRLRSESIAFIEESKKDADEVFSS
One number for each entry, as −log10 of the molar value.

Use the examples below as a reference point.
{"SMILES NOTATION": "Nc1cccc(-c2ccc(CCN3CCN(C(=O)Cc4ccccc4)CC3)cc2)n1", "MEASURED PARAMETER": "pIC50", "RESULT NUMBER": 6.97}
{"SMILES NOTATION": "Nc1cccc(-c2ccc(CCN3CCN(c4cccc5cccnc45)CC3)cc2)n1", "MEASURED PARAMETER": "pIC50", "RESULT NUMBER": 6.89}
{"SMILES NOTATION": "CC(C)CN1CCN(CCc2ccc(-c3cccc(N)n3)cc2)CC1", "MEASURED PARAMETER": "pIC50", "RESULT NUMBER": 6.71}
{"SMILES NOTATION": "Nc1cccc(-c2ccc(CCN3CCN(CCc4ccccc4)CC3)cc2)n1", "MEASURED PARAMETER": "pIC50", "RESULT NUMBER": 6.61}
{"SMILES NOTATION": "CC(C)NC(=O)CN1CCN(CCc2ccc(-c3cccc(N)n3)cc2)CC1", "MEASURED PARAMETER": "pIC50", "RESULT NUMBER": 6.59}

Continue with the next compound.
*Q* What reported pIC50 corresponds to Nc1cccc(-c2ccc(CCN3CCN(CC(=O)c4ccccc4)CC3)cc2)n1 on UniProt:P29476?
*A* 6.90

###

experiment: Maximum concentration in whole brain at 30 min following 24 mg/kg subcutaneous dose in rats; format: ADME, organism-based; design: dose 24 mg/kg, route subcutaneous; conditions: rat, sc
MEASURED PARAMETER: Cmax (ng/mL)
One number for each entry, in ng/mL.

*Q* Field request: Cmax | item: Nc1cccc(-c2ccc(CCN3CCN(CC(=O)c4ccccc4)CC3)cc2)n1
*A* 11000

###

Values of log10 IC50 reported for Nitric oxide synthase 1 (Homo sapiens, UniProt P29475) appear below.
Log10 applied to IC50; unit prior to transform: nM.

Use the examples below as a reference point.
{"SMILES NOTATION": "Nc1cccc(-c2ccc(CCN3CCN(CCc4ccccc4)CC3)cc2)n1", "MEASUREMENT TARGET": "Nitric oxide synthase 1 (Homo sapiens, UniProt P29475)", "log10 IC50": 2.42}
{"SMILES NOTATION": "CC(C)CN1CCN(CCc2ccc(-c3cccc(N)n3)cc2)CC1", "MEASUREMENT TARGET": "Nitric oxide synthase 1 (Homo sapiens, UniProt P29475)", "log10 IC50": 2.54}

Provide log10 IC50 values for the following items, in order.
1. O=[N+]([O-])c1cccc2cn[nH]c12
2. Nc1cccc(-c2ccc(CCN3CCN(CC(=O)c4ccccc4)CC3)cc2)n1
3. Nc1cccc(-c2ccc(CCN3CCN(C(=O)Cc4ccccc4)CC3)cc2)n1
4. Nc1cccc(-c2ccc(CCN3CCN(c4cccc5cccnc45)CC3)cc2)n1

*A*
1. 3.46
2. 2.15
3. 2.14
4. 2.33
